# tested-on: Glucose transporter (Leishmania mexicana) (UniProt O61059)
# protocol: ST_JUDE_LEISH: Cytotoxicity at 2uM final concentration against transgenic Leishmania Mexicana promastigotes LmGT2 that are glucose transport deficient and complemented with the L. Mexicana glucose transporter 2. Activity is measured by DNA content using SYBR green in vitro
# Type: functional
value-type: inhibition

For each listed entry, give its inhibition.
1. Cc1nc(C)c(-c2ccc(Oc3ccc(Cl)c(Cl)c3)cc2)c(O)c1Cl
2. COc1ccccc1CNC(=O)CCn1c(=O)[nH]c2ccsc2c1=O
3. CN1CCN(c2ccnc3ccc(NC(=O)Nc4ccc(Br)cc4)cc23)CC1
4. O=C(NCCCCN1CC=C(c2ccc3c(c2OCc2ccccc2)CCCC3)CC1)c1ccc(-c2ccc(C(F)(F)F)cc2)cc1
5. O=C(/C=C/c1ccc(Cl)c(Cl)c1)NCCCCCN1CCC(NC(=O)c2ccc([N+](=O)[O-])cc2)CC1
6. CCc1cc(NC(=O)Nc2ccnc3ccccc23)ccc1OC
7. COC(=O)C(=C(C)C)N1C(=O)[C@@H](NC(=O)OCc2ccccc2)[C@H]1SS[C@@H]1[C@H](NC(=O)OCc2ccccc2)C(=O)N1C(C(=O)OC)=C(C)C
8. CCCc1cc(C(=O)N[C@@H](Cc2ccccc2)[C@H](O)CNC2CCOCC2)c(F)c(N2CCCCS2(=O)=O)c1

Reply:
1. 2.1%
2. 1.36%
3. 0.32%
4. -2.15%
5. 9.31%
6. 11.6%
7. -1.05%
8. 6.25%

# return inhibition for each item in the list
1. CCN(CC)c1ccc(C(c2ccc(N(CC)CC)cc2)c2cccc([N+](=O)[O-])c2)cc1
2. Cc1ccc(NC(=O)C(C)Sc2nnc(-c3ccccc3Br)[nH]2)cc1 (stereo not drawn)
3. Cc1noc(C)c1CN1CCCN(c2ccc3c(c2)CCN(Cc2ccc(-c4ncc[nH]4)cc2)CC3)CC1
4. COc1ccccc1N1CCN(Cc2c(NC(C)=O)sc(C)c2C)CC1
5. CCNc1cc(C(=O)N[C@@H](Cc2ccccc2Cl)[C@H](O)CNC2CCCCC2)cc(N2CCCCS2(=O)=O)c1
6. Cc1cc(CN2CCCN(c3ccc4c(c3)CCN(Cc3ccc(-c5ncc[nH]5)cc3)CC4)CC2)n(C)n1
7. CCCCCCCOc1ccc(NC(=O)Nc2ccc(Cn3ncc(N4CCCNCC4)c(Cl)c3=O)cc2)cc1

Reply:
11.1%
-0.33%
1.65%
1.44%
-2.07%
-3.2%
-1.59%

Please give inhibition for each item listed below.
1. OC(CN1CCN(Cc2ccccc2)CC1)Cn1c(-c2ccccc2)c(-c2ccccc2)c2ccccc21 (stereo not drawn)
2. COc1ccc2c(NN=Cc3ccccc3)ccnc2c1
3. CCCCCCCN1CC[C@@H](CCCc2ccnc3ccc(OCCCCN/C(N)=N/O)cc23)[C@@H](CC)C1

Reply:
2.72%
-1.04%
2.04%

---

# tested-on: Glucose transporter (Leishmania mexicana)
# protocol: ST_JUDE_LEISH: Cytotoxicity at 2uM final concentration against transgenic Leishmania Mexicana promastigotes LmGT2 that are glucose transport deficient and complemented with the L. Mexicana glucose transporter 2. Activity is measured by DNA content using SYBR green in vitro
# Assay type: functional
value-type: inhibition

Completed entries (count: 2):
# compound, tested-on, value-type, reported-measurement
rows = [
    ("CN1CCN(CCCNCc2ccc(Nc3nccc(Nc4ccc(Oc5ccccc5)cc4)n3)cc2)CC1", "Glucose transporter (Leishmania mexicana)", "inhibition", "1.48%"),
    ("CN1CCN(Cc2nc(-c3ccc4c(Nc5ccc(F)c(O)c5)ccnc4c3)cs2)CC1", "Glucose transporter (Leishmania mexicana)", "inhibition", "0.94%"),
]

Please supply inhibition for each of the following items, keeping them in order.
1. Cc1ccc(-c2csc(C)n2)c(C)c1
2. CC(C)c1ccc(NC(=O)NC2CCN(CCCCCNC(=O)/C=C/c3ccc(Cl)c(Cl)c3)CC2)cc1
3. CCCN(CC1CC1)c1ncc(-c2cccc(CNCCC3CCCN3C)c2)cn1 (stereo not given)
4. CCC1CN(CCCn2c3ccccc3c3ccccc32)C(CC)CN1 (stereo not given)
5. O=C(N/C=N/c1cc([N+](=O)[O-])c(-c2cccnc2)n1-c1ccc(O)cc1)c1ccccc1
6. O=C(Nc1cccc(-c2ccc(-c3nc4cc(C(F)(F)F)ccc4[nH]3)s2)c1)c1cccnc1

Reply:
2.4%
-0.17%
104%
-0.18%
-1.68%
4.16%

Every entry's value here was drawn from ChEMBL document CHEMBL3433997.
